target: BoNT/B2 (Clostridium botulinum); assay: KinExA flow fluorimetry, IgG in solution
measurementLabel: pKd
Convention used: pKd is expressed as -log10 of the molar concentration.

binder="B11E8 IgG (antibody, V domains shown) VH: EVQLVQSGGGVVQPGRSLRLSCAASGFIFRTYGMHWVRQAPGKGLEWVAFVSSDGNNKFYSDSVKGRFTISRDNAKNTLYLQMNSLETEDTAMYYCAKDRYPIDCSGGSCFSYGMDVWGQGTTVTVSS VL: EIVLTQSPATLSVSPGERATLSCRASQSVSKFLAWYQQKRGQAPRLLIYGASTRATGIPARFSGSGSGTEFALTISSLQSEDFADYYCQQYDNWPITFGQGTRLEIKR" resultnumber=10.74

Shifting focus to the binder that follows.
Dear colleague, I am looking for the recorded pKd of the following binder: 2B23 IgG (antibody, V domains shown) VH: EVQLLESGGGLVQPGGSLRLSCAASGFTFSNYPMSWVRQAPGKGLAWVSSLTASGDNTFYADSVKGRFTISRDNSNNTLYLQMHSLRAEDTAVYYCAKALVGRYDISTGYYRPVMDSWGQGTLVTVSS VL: DIQMTQSPPSLSASVGDRVTITCRTSQGFTSALAWYQQKPGEPPKLLIYDASKLESGVPSRFSGSGSGTNFALTISSLQPEDFATYFCQQSNSYPLTFGGGTKVEIKR 10.34
